test system: CCRIS mutagenicity, Ames/micronucleus/aberration tests; assay: CCRIS mutagenicity studies; conditions: Test System: AMES SALMONELLA TYPHIMURIUM; Strain/Indicator: TA100; Metabolic Activation: NONE; Method: PREINCUBATION
The source made the active and inactive calls. No rule for the calls is given here.
Permitted responses: active, inactive

Tell me the recorded outcome of this test for `CCOc1cccc([N+](=O)[O-])c1` .
inactive

Now consider `c1ccc2[nH]ccc2c1` and answer again.
inactive

Now consider `C/C(C=O)=C(/Cl)C(=O)O` and answer again.
active

Now consider CCCCC(CC)COC(=O)c1ccccc1C(=O)O (stereo not drawn) and answer again.
inactive

Now consider `O=Cc1ccc(O)cc1` and answer again.
inactive

Now consider `O=S(=O)(O)c1ccc2cc(Oc3ccc4cc(S(=O)(=O)O)ccc4c3)ccc2c1` and answer again.
inactive

Now consider `COc1cc(-c2ccc(N/N=C3\C=C(S(=O)(=O)O)c4ccccc4C3=O)c(OC)c2)ccc1N/N=C1/C=C(S(=O)(=O)O)c2ccccc2C1=O` and answer again.
inactive

Now consider N[C@@H](CCC(=O)NC(CSC(Cl)=C(Cl)Cl)C(=O)NCC(=O)O)C(=O)O (stereo partly drawn) and answer again.
inactive

Now consider `Cc1cc(C)c2nc3c(ccc4ccccc43)c(C)c2c1` and answer again.
active

Now consider `S=P(N1CC1)(N1CC1)N1CC1` and answer again.
active

Now consider `Nc1cccc2c(=O)[nH][nH]c(=O)c12` and answer again.
inactive

Now consider CC(N)CN (stereo not drawn) and answer again.
inactive

Now consider `c1ccc2ncccc2c1` and answer again.
inactive

These entries and their values trace back to PubChem BioAssay AID1259407.
